Property: protein stability index; scope: individual variants
B1: HDAC6 (parent)
chain: ACAQLATGAACRLVEAVLSGEVLN

Variants of: B1
assay summary: protein stability index of a GFP-peptide fusion (GPS, HEK-293T) (PSI 1-6); higher = more stable;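 also: lentivirally expressed fusions sorted by FACS into six bins by GFP to DsRed ratio, PSI derived from sequencing read proportions per bin multiplied by bin number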
condition notes: c terminus: a fixed tail appended
Output spec: single numeric token, no unit.

sequence_data="ACAQLHTGAACRLVEAVLSGEVLN [A6H]" quantitative_readout=1
sequence_data="ACAQLATGAACRLVERVLSGEVLN [A16R]" quantitative_readout=2.18
sequence_data="ACAQLATGAACRLVEAVLPGEVLN [S19P]" quantitative_readout=2.98
sequence_data="ACAQLATGYACRLVEAVLSGEVLN [A9Y]" quantitative_readout=1.68
sequence_data="ACAQLATGAACRLVEAVSSGEVLN [L18S]" quantitative_readout=2.04

Fill in: protein stability index of ACAQLITGAACRLVEAVLSGEVLN [A6I] is ___
3.57

Would you mind telling me what protein stability index value was observed for ACAQLATGAACRLVEAVLSGEFLN [V22F] ?
2.71
